# credit: patent US20220281976A1

- tgt: T1, human monomeric His tagged CD33 protein (human, UniProt P20138 18-259)
- T1 construct: also called hCD33-His
- experimentNotes: ForteBio BLI or MSD-SET, IgG, monomeric antigen;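 note: BLI: antibodies captured on AHQ sensors, 100 nM antigen association 5 min, dissociation 5 min, 1:1 fit. MSD-SET: antigen fixed at 50 pM, antibody titrated, quadratic fit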
Catalogue of Kd readings, one per entry.
Expressed in nM, but write only the number.

[[record]]
binder = "C-3 (antibody, V domains shown, human IgG1) VH: QVQLVQSGAEVKKPGSSVKVSCKASGGTFSNYAISWVRQAPGQGLEWMGGIIPIFGTANYAQKFQGRVTITADESTSTAYMELSSLRSEDTAVYYCARDTGTYVTGDGMDVWGQGTTVTVSS VL: EIVMTQSPATLSVSPGERATLSCRASQSVSSNLAWYQQKPGQAPRLLIYGASTRATGIPARFSGSGSGTEFTLTISSLQSEDFAVYYCQQYDVWPITFGGGTKVEIK"
recordedvalue = 5.76

[[record]]
binder = "C-90 (antibody, V domains shown, human IgG1) VH: EVQLVESGGGLVQPGGSLRLSCAASGFTFSSYWMSWVRQAPGKGLEWVANINQDGSEKYYVDSVKGRFTISRDNAKNSLYLQMNSLRAEDTAVYYCAREAGAVTGYRWFDPWGQGTLVTVSS VL: DIQMTQSPSSLSASVGDRVTITCRASQSISSYLNWYQQKPGKAPKLLIYGASSLQSGVPSRFSGSGSGTDFTLTISSLQPEDFATYYCQQQYLTPLTFGGGTKVEIK"
recordedvalue = 5.74

[[record]]
binder = "C-26 (antibody, V domains shown, human IgG1) VH: QLQLQESGPGLVKPSETLSLTCTVSGGSISSNSYYWGWIRQPPGKGLEWIGSIYYSGSTYYNPSLKSRVTISVDTSKNQFSLKLSSVTAADTAVYYCARSPVYYDSSGYFQYYGMDVWGQGTTVTVSS VL: EIVLTQSPATLSLSPGERATLSCRASQSVSSYLAWYQQKPGQAPRLLIYDASKRATGIPARFSGSGSGTDFTLTISSLEPEDFAVYYCQQSIVWPPFTFGGGTKVEIK"
recordedvalue = 1.57


// switching to the query binder
# input Record request: Kd value, item C-66 (antibody, V domains shown, human IgG1) VH: QLQLQESGPGLVKPSETLSLTCTVSGGSISSSSYYWGWIRQPPGKGLEWIGSIYYSGSTYYNPSLKSRVTISVDTSKNQFSLKLSSVTAADTAVYYCAREVGYPYGMDVWGQGTTVTVSS VL: DIQLTQSPSSLSASVGDRVTITCQASQDISNFLNWYQQKPGKAPKLLIYDASNLETGVPSRFSGSGSGTDFTFTISSLQPEDIATYYCQQYSDLPTFGGGTKVEIK
# output 100
